Molecular target: T1, hTIGIT (ELISA of Table 7) (human, UniProt Q495A1 22-141, limits assumed)
T1 construct: whole entry named; also called human TIGIT
T1 chain: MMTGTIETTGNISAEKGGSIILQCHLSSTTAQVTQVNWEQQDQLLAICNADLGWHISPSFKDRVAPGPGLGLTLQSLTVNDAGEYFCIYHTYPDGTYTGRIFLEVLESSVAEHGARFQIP
Experiment: ELISA binding
Property Label: pEC50
For clarity, pEC50 is expressed as the negative log10 of concentration in mol/L.

INPUT: Query (binder): hz7D4 mIgG2a (antibody, V domains shown) VH: EVQLVQSGGGLVKPGGSLRLSCAASGYTFTNYWIGWVRQTPGKGLEWVGDIYPGSSFTNSNEKFKGRFTISADKSKNTAYLQMNSLRAEDTAVYYCARLGRGYWYFDVWGQGTLVTVSS VL: DIVLTQSPATLSASLGERATLSCSASSSVSYIHWYQQKPGQAPKLLIYTTSNLASGVPSRFSGSGSGTDFTLTISSLEAEDFATYYCHQWSRYPTFGGGTKLEIK ; field requested: pEC50
OUTPUT: 9.52
